# tgt: Voltage-gated potassium channel subunit beta-2 (Rattus norvegicus)
# test.summary: inhibitors of rat Kvbeta2 reductase activity – biochemical, NADPH fluorescence, primary screen (AID 622);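 also: slope of raw intensity against log time taken from 70 to 1610 s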
# details: recombinant KvBeta, 4-cyanobenzaldehyde reduction, at 10 µM, stronger effect = higher value
The entries below come with measured fluorescence slope values attached.
Note: the reply should be a number with no unit written.

{"columns": ["molecule", "fluorescence slope"],
 "data": [
  ["CSc1ccccc1N=CC1=C(O)CC(C)(C)CC1=O", -0.461],
  ["O=C(CSc1nc2ccccc2s1)N1CCOCC1", -0.525],
  ["Clc1ccc2nc(N3CCCCC3)[nH]c2c1", -0.446]
]}

// query fluorescence slope value for entry CCCN1C2CCCC1CC(NC(=O)c1ccccc1F)C2 (configuration not stated) -0.515

// query fluorescence slope value for entry CCCCC(=O)NCCc1ccc(S(N)(=O)=O)cc1 -0.412

// query fluorescence slope value for entry COc1ccc(-c2noc(CCCC(=O)O)n2)cc1 -0.341

---

# tgt: Voltage-gated potassium channel subunit beta-2 (Rattus norvegicus)
# test.summary: inhibitors of rat Kvbeta2 reductase activity – biochemical, NADPH fluorescence, primary screen (AID 622);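 also: slope of raw intensity against log time taken from 70 to 1610 s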
# details: recombinant KvBeta, 4-cyanobenzaldehyde reduction, at 10 µM
The source made the active and inactive calls.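 The calls were made as follows: active = fluorescence slope higher than the sample average by over 3 SD (cut at about -0.22 in these data, passing the limit was not always enough); inactive = the rest.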
# output must be one of Y = active, N = inactive

{"columns": ["smiles.representation", "assigned.label"],
 "data": [
  ["Cc1ccccc1N1C(N)=NC(N)=NC1(C)C", "N"],
  ["c1ccc(-c2cnc(CSc3ncnc4sccc34)o2)cc1", "N"],
  ["CCN(CC)S(=O)(=O)c1ccc(F)cc1", "N"],
  ["COc1ccccc1Oc1coc2c(CN3CCN(C)CC3)c(O)ccc2c1=O", "Y"],
  ["CCOC(=O)c1cccc(NC(=O)CSc2nnc(-c3cccnc3)n2C)c1", "N"],
  ["CC1CCN(S(=O)(=O)c2ccc3[nH]cc(C(=O)NCCN4CCOCC4)c(=O)c3c2)CC1", "N"]
]}

Lab note: next molecule to report on.
Hi, do you know how COc1cccc(-c2nnc(NC(=O)c3ccccc3Br)o2)c1 came out in this test? N

---

The entries below come with measured inhibition values attached.
# test.summary: blockers of RIG-like receptor reporter activation – cell-based, Sendai virus stimulus, luciferase, 10K MLSCN set, TLR/RLR signaling modifier project, primary screen (AID 602276);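 also: firefly luciferase from ISG56 promoter only with Renilla not read in this screen; 0% = Sendai virus plus DMSO and 100% = medium plus DMSO without virus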
# details: HEK293 RL24 IRF3 luciferase reporter, at 10 µM, stronger effect = higher value
Reply numerically in %, unit not repeated.

{"columns": ["molecule", "endpoint.unit", "recorded.measurement"],
 "data": [
  ["COc1cccc(OC)c1OCCCSc1nc(C)cc(=O)[nH]1", "%", -9.76],
  ["CN(c1ccccc1C(N)=O)S(=O)(=O)c1ccccc1", "%", 13]
]}

// query inhibition value for entry COc1ccc(NC(=O)C(C)NS(=O)(=O)c2ccc(NC(C)=O)cc2)cc1Cl (stereo not drawn) 12.1

// query inhibition value for entry Oc1ccccc1-c1nnc(COc2ccc(Cl)cc2Cl)o1 -0.185

// query inhibition value for entry Cc1nn(-c2ccc(F)cc2)c2sc(C(=O)N3CCCCCC3)cc12 -4.92

---

The entries below come with measured inhibition values attached.
# test.summary: inhibitors of TNFa-induced NFkB p65 translocation, primary screen, imaging, HUVEC, MLSMR starter and 10KST1 sets (AID 438);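 also: compound added about 3h40 before a 20 min TNFalpha stimulation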;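 as to inhibition: signal is the nuclear over cytoplasmic p65 intensity ratio per well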
# details: HUVEC TNFa-induced p65 nuclear translocation; at 2 µM, stronger effect = higher value, 0% TNFa-plus-vehicle, 100% no-TNFa wells
Reply numerically in %, unit not repeated.

Use the examples below as a reference point.
{"columns": ["molecule", "endpoint.unit", "inhibition"],
 "data": [
  ["CCN(CC)c1ccc2cc(NC(=O)CCC(=O)O)c(=O)oc2c1", "%", -21.1],
  ["CC1=C(C(=O)NC2CCCC(C)C2C)C2(CCCCC2)OC1=O (stereo not given)", "%", 3.3]
]}

// query inhibition value for entry CC1CCCN(C(=O)c2cc3c(-c4ccc(Cl)cc4)nn(C)c3s2)C1 (stereo not given) -1.7

// query inhibition value for entry O=C(NC1CCCC1)C(c1ccco1)N(Cc1ccccc1)C(=O)c1csnn1 (stereo not given) 5.4

---

# test.summary: reduction of polyQ htt aggregates in cells – imaging, exon1htt(103Q)mCFP cells, high-content imaging, primary screen (AID 483);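 also: compound exposure lasted 3 days before fixation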
# details: exon1htt(103Q)mCFP cell line, aggregate imaging, at 2 µM; stronger effect = higher value
The entries below come with measured inhibition of aggregation values attached.
Reply numerically in %, unit not repeated.

Use the examples below as a reference point.
{"columns": ["compound", "inhibition of aggregation, %"],
 "data": [
  ["O=C(COc1ccc(S(=O)(=O)NC2CCCCC2)cc1Cl)NCC1CCCO1 (stereo unspecified)", -14.2],
  ["CCOc1ccc2[nH]c(=O)c(C(c3nnnn3CC3CCCO3)N3CCc4ccccc4C3)cc2c1 (stereo unspecified)", 3.6],
  ["Nc1ncnc2nc(Sc3ccc(Cl)cc3)[nH]c12", -5.4],
  ["O=C(CSc1nnc(Cn2c(=O)sc3ccccc32)n1-c1ccccc1)NCC1CCCO1 (stereo unspecified)", 1.1],
  ["Cc1cccc(N2CCN(C(=O)C3CCCN(S(=O)(=O)c4c(C)noc4C)C3)CC2)c1C (stereo unspecified)", -11.6],
  ["Cn1cc(CN2CCc3ccccc3C2)c2ccccc21", -6.2],
  ["CCOc1ccc(NC(=O)CSc2nccn2C)cc1", 3.1],
  ["CCOC(=O)N1CCN(C(=O)c2c(-c3ccccc3)noc2C)CC1", -5.9]
]}

// query inhibition of aggregation value for entry N#CCC(=O)N1CCn2c1nc1ccccc12 -20.8

// query inhibition of aggregation value for entry CCn1c(=O)c(C(=O)NCc2ccc(OC)cc2)c(O)c2ccccc21 0.6

// query inhibition of aggregation value for entry CCc1nn(CC(=O)N2CCN(Cc3ccc4c(c3)OCO4)CC2)c(=O)c2cc3occc3n12 -11.1

// query inhibition of aggregation value for entry S=c1[nH]nc(Cc2ccccc2)n1Cc1ccco1 3

---

# test.summary: inhibitors of TNFa-induced NFkB p65 translocation, primary screen, imaging, HUVEC, MLSMR starter and 10KST1 sets (AID 438);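 also: compound added about 3h40 before a 20 min TNFalpha stimulation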
# details: HUVEC TNFa-induced p65 nuclear translocation; measured here: nuclei count (cytotoxicity indicator), at 2.08 µM
measured.property: cell count
Note: the reply should be a number with no unit written.

Use the examples below as a reference point.
{"columns": ["compound", "cell count"],
 "data": [
  ["CCc1nnc2c3cnn(-c4ccccc4)c3ncn12", 402],
  ["Nc1nc(Nc2cccc3ccccc23)nc(C2CCCC2=O)n1 (centres undefined)", 349],
  ["O=C(NCCC1=CCCCC1)N[C@@H](Cc1ccccc1)C(=O)O", 377],
  ["CCOC(=O)c1c(C)[nH]c(C(=O)COC(=O)C2CC2C)c1C (centres undefined)", 378],
  ["COc1ccc(N(CC(=O)Nc2ccc(F)c(Cl)c2)S(=O)(=O)c2c(C)noc2C)cc1", 372]
]}

// query cell count value for entry O=C(O)C1CCCN1C(=O)c1cccs1 (centres undefined) 367

---

The entries below come with measured nuclei count values attached.
# test.summary: reduction of polyQ htt aggregates in cells – imaging, exon1htt(103Q)mCFP cells, high-content imaging, primary screen (AID 483);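 also: compound exposure lasted 3 days before fixation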;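 as to nuclei count: percent of the per-plate median nuclei count of sample wells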
# details: exon1htt(103Q)mCFP cell line, aggregate imaging, at 2 µM; measured here: cell count, toxicity
Reply numerically in %, unit not repeated.

Use the examples below as a reference point.
{"columns": ["compound", "endpoint.unit", "recorded.measurement"],
 "data": [
  ["C=CCn1c(SCC(=O)NCCCC)nc2scc(-c3ccco3)c2c1=O", "%", 120],
  ["CCOc1cc(-c2nc3ccccn3c2NCC2CCCO2)ccc1O (stereo not drawn)", "%", 94.3],
  ["CCN(CCCNC(=O)COc1cc(=O)n(CC)c2ccccc12)c1ccccc1", "%", 104]
]}

// query nuclei count value for entry COc1ccc(-c2cc(C(F)(F)F)nc(N3CCN(c4ccc(F)cc4)CC3)n2)cc1OC 105

// query nuclei count value for entry COCCN(CC(=O)NCc1ccccc1)C(=O)CCC(=O)Nc1ccccn1 86

// query nuclei count value for entry CC(C)CCN1CC(C(=O)NCc2ccccc2)CC1=O (stereo not drawn) 121

// query nuclei count value for entry CCOCCCn1c(=S)[nH]c2cc3c(cc2c1=O)OCO3 92

---

# test.summary: blockers of RIG-like receptor reporter activation – cell-based, Sendai virus stimulus, luciferase, 10K MLSCN set, TLR/RLR signaling modifier project, primary screen (AID 602276);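 also: firefly luciferase from ISG56 promoter only with Renilla not read in this screen; 0% = Sendai virus plus DMSO and 100% = medium plus DMSO without virus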
# details: HEK293 RL24 IRF3 luciferase reporter, at 10 µM, stronger effect = higher value
The entries below come with measured inhibition values attached.
Reply numerically in %, unit not repeated.

Use the examples below as a reference point.
{"columns": ["compound", "endpoint.unit", "inhibition"],
 "data": [
  ["O=C(CN1CCN(Cc2ccccc2F)C1=O)NCc1cccnc1", "%", 7.76],
  ["COc1cccc(-c2csc(N3CCN(CC(=O)Nc4ccc5c(c4)OCO5)CC3)n2)c1", "%", -45.8]
]}

// query inhibition value for entry CCCN1CC23C=CC(O2)C(C(=O)O)C3C1=O (stereo unspecified) 6.27

// query inhibition value for entry c1ccc(CC2CCN(c3nc4ccccc4n4nnnc34)CC2)cc1 7.26
